Hey, just so you know, these numbers are from patent US20210024646A1.

- ASSAY_SYSTEM: T1, Carbon-terminal polyhistidine-labeled recombinant cynomolgus monkey CD73 enzyme (cynomolgus monkey, UniProt A0A2K5V5U7 1-547)
- T1 chain: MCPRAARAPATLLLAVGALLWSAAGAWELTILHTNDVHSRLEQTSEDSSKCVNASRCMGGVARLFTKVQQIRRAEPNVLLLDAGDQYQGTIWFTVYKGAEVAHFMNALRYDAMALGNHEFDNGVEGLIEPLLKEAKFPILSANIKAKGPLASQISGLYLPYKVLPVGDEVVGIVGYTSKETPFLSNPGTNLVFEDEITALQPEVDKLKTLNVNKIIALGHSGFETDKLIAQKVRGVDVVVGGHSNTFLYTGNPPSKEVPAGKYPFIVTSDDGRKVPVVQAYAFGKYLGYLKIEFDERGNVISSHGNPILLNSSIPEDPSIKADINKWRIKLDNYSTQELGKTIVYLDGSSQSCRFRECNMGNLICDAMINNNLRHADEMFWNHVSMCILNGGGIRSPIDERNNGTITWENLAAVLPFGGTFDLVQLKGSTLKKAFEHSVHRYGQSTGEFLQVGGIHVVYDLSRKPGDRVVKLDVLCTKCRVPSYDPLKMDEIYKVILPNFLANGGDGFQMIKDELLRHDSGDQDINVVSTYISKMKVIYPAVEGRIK
- MEASUREMENT_NOTES: enzyme inhibition; right table
Items are presented alongside their recorded pIC50.
Scale: pIC50 equals -log10([C]), with [C] in mol/L.

BINDER	pIC50
Hu002c-16 (antibody, V domains shown) VH: QVQLVQSGAEVKKPGASVKVSCKASGYTLTSYWMHWVKKAPGQGLEWIGEINPSQGRSNYNEKFKSKVTLTVDRSTSTVYMELSSLRSEDTAVYYCARRGVSGNYFDYWGQGTLVTVSS VL: DIQMTQSPSSLSASVGDRVTITCKASQDINTYLSWFQQKPGKSPKSLIYRSNILVSGVPSRFSGSGSGQDYTLTISSLQPEDFAIYYCLQYDEFPYTFGGGTKLEI	10.14

Turning now to a further binder:
Prompt: Entry Hu001c-24 (antibody, V domains shown) VH: QVQLVQSGAEVKKPGASVKVSCKTSGYTFTNYYIYWVKQRPGQGLEWIGWIYPGNLNIKYNEKFKGRVTITADKSASTAYMELSSLRSEDTAVYYCARDDNYAWFAYWGQGTLVTVSS VL: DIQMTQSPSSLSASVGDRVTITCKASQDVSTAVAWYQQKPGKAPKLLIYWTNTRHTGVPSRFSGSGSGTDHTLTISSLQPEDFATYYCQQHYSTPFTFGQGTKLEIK has what pIC50?
Completion: 10.40
